Origin of measurements: patent US11566007B2

Listing of recorded IC50 by entry.
# target.desc: KRAS G12S (Homo sapiens (Human), UniProt P01116+P62937, G12S)
# Sequence (P01116-2 other isoform, or with tags, fused parts or gaps G12S): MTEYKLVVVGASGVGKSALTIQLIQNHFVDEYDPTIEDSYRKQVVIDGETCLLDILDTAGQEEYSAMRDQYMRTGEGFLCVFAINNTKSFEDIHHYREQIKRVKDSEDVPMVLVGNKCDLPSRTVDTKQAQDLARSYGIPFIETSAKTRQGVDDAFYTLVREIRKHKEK
# Sequence (P62937 whole entry): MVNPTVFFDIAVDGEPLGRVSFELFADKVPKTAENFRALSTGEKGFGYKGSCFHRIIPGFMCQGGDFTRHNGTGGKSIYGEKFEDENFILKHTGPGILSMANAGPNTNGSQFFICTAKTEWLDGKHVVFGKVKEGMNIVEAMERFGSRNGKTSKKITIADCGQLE
# test: Ras-Raf (BRAF RBD) disruption / FRET / MOA assay, KRAS G12S
# Format: biochemical
# experimental.setup: Ras-Raf disruption/FRET/MOA assay; class symbols; read-out: KRAS G12S FRET data IC50

Solved cases (2 shown):
{"molecule": "C=CC(=O)N1CC[C@H](C(=O)N(C)[C@H](C(=O)N[C@H]2Cc3nc(ns3)-c3ccc4c(c3)c(c(-c3cncnc3)n4CC)CC(C)(C)COC(=O)[C@@H]3CCCN(N3)C2=O)C(C)C)C1", "IC50": "> 10000 nM"}
{"molecule": "CCn1c(-c2cccnc2[C@H](C)OC)c2c3cc(ccc31)-c1cccc(c1)C[C@H](NC(=O)[C@H](C(C)C)N1CC[C@@]3(CCN(C(=O)C#C[C@@H]4COCCN4C4COC4)C3)C1=O)C(=O)N1CCC[C@H](N1)C(=O)OCC(C)(C)C2", "IC50": "1000 to 10000 nM"}

*Q* I'd like to know its IC50. The molecule in question is C=CC(=O)N1CCO[C@@H]2CCN(C(=O)N(C)[C@H](C(=O)N[C@H]3Cc4nc(cs4)-c4ccc5c(c4)c(c(-c4cccnc4[C@H](C)OC)n5CC)CC(C)(C)COC(=O)[C@@H]4CCCN(N4)C3=O)C(C)C)CC21 (stereo partly shown)
*A* 10 to 100 nM

*Q* I'd like to know its IC50. The molecule in question is CO[C@@H](C)c1ncccc1-c1c2c3cc(ccc3n1CC(F)(F)F)-c1csc(n1)C[C@H](NC(=O)[C@H](C(C)C)N(C)C(=O)N1CCN(C(=O)/C=C/CN(C)C)C3(CC3)C1)C(=O)N1CCC[C@H](N1)C(=O)OCC(C)(C)C2 (atropisomer, axis not shown)
*A* 10 to 100 nM

###

Listing of recorded pIC50 by entry.
# target.desc: KRAS G12S (Homo sapiens (Human), UniProt P01116+P62937, G12S)
# test: Ras-Raf (BRAF RBD) disruption / FRET / MOA assay, KRAS G12S
# Type: biochemical
# experimental.setup: Ras-Raf disruption/FRET/MOA assay; class symbols; read-out: KRAS G12S FRET data IC50
pIC50: −log10 of the molar value.

{"molecule": "C=CC(=O)Nc1ncc(C(=O)N(C)[C@H](C(=O)N[C@H]2Cc3cccc(c3)-c3ccc4c(c3)c(c(-c3cccnc3[C@H](C)OC)n4CC)CC(C)(C)COC(=O)[C@@H]3CCCN(N3)C2=O)C(C)C)n1C (atropisomer, axis not shown) [Example A474]", "target.desc": "KRAS G12S (Homo sapiens (Human), UniProt P01116+P62937, G12S)", "pIC50": "5.00 to 6.00"}
{"molecule": "CO[C@@H](C)c1ncccc1-c1c2c3cc(ccc3n1CC(F)(F)F)N1CCO[C@@H](C[C@H](NC(=O)[C@H](C(C)C)N3CC[C@]4(CCN(C(=O)C#CC(C)(C)N(C)C)C4)C3=O)C(=O)N3CCC[C@H](N3)C(=O)OCC(C)(C)C2)C1 (atropisomer, axis not shown) [Example A642]", "target.desc": "KRAS G12S (Homo sapiens (Human), UniProt P01116+P62937, G12S)", "pIC50": "5.00 to 6.00"}

*Q* I'd like to know its pIC50. The molecule in question is CCn1c(-c2cccnc2[C@H](C)OC)c2c3cc(ccc31)-c1cccc(c1)C[C@H](NC(=O)[C@H](C(C)C)N1CC[C@@]3(CCN(C(=O)C#C[C@@H]4COCCN4C)C3)C1=O)C(=O)N1CCC[C@H](N1)C(=O)OCC(C)(C)C2 (atropisomer, axis not shown) [Example A549]
*A* 5.00 to 6.00

*Q* I'd like to know its pIC50. The molecule in question is CO[C@@H](C)c1ncccc1-c1c2c3cc(ccc3n1CC(F)(F)F)-c1cc(cc(C(F)F)c1)C[C@H](NC(=O)[C@H](C(C)C)N(C)C(=O)[C@H]1CCN(C(=O)C#CC(C)(C)N3CCC3)C1)C(=O)N1CCC[C@H](N1)C(=O)OCC(C)(C)C2 (atropisomer, axis not shown) [Example A370]
*A* 5.00 to 6.00

*Q* I'd like to know its pIC50. The molecule in question is CC#CC(=O)N1CC[C@@]2(CCN([C@H](C(=O)N[C@H]3Cc4nc(cs4)-c4ccc5c(c4)c(c(-c4cccnc4[C@H](C)OC)n5CC)CC(C)(C)COC(=O)[C@@H]4CCCN(N4)C3=O)C(C)C)C2=O)C1 (atropisomer, axis not shown) [Example A535]
*A* 5.00 to 6.00

*Q* I'd like to know its pIC50. The molecule in question is C=CC(=O)N1CC2(CCN(C(=O)N(C)[C@H](C(=O)N[C@H]3Cc4nc(cs4)-c4ccc5c(c4)c(c(-c4cccnc4[C@H](C)OC)n5CC)CC(C)(C)COC(=O)[C@@H]4CCCN(N4)C3=O)C(C)C)CC2)C1 (atropisomer, axis not shown) [Example A394]
*A* 6.00 to 7.00

*Q* I'd like to know its pIC50. The molecule in question is CCn1c(-c2cccnc2[C@H](C)OC)c2c3cc(ccc31)-c1cccc(c1)C[C@H](NC(=O)CCOC1CN(C(=O)C#CC(C)(C)N(C)C)C1)C(=O)N1CCC[C@H](N1)C(=O)OCC(C)(C)C2 (atropisomer, axis not shown) [Example A448]
*A* < 5.00
